Test system: UACC-257 melanoma
Test: NCI-60 one-dose screen, 48 h (100 = growth as untreated, 0 = no growth, -100 = all killed)
Conditions: 10 µM unless noted
About 83,000 compounds went through this panel and 20% of them were active in at least one assay; those are over-represented in the sample as a whole. Where a SMILES comes first, the peptide text is derived from it. [ ]: non-standard residue; d: D form. ξ: configuration not given here. ξD = NC(CC(=O)O)C(=O)O
Please assign 0 (no) whenever growth is at or above 70%, and 1 (yes) whenever it is below.

>>> class("CC(C)c1ccc(C(=O)OC2CCCC2)cc1")
"0 (no)"
>>> class("O=[N+]([O-])c1ccc(C2N(Cc3ccc(Cl)cc3)CCN2Cc2ccc(Cl)cc2)cc1")
"0 (no)"
>>> class("O=C(c1ccccc1)C(O)C(Br)(CBr)c1ccccc1 (centres undefined)")
"0 (no)"
>>> class("Cc1nnc(N/N=C/c2ccc([N+](=O)[O-])o2)[nH]c1=O")
"1 (yes)"
>>> class("NCC(=O)NC(CC(=O)O)C(=O)O (centres undefined) (H-Gly-[ξD]-OH)")
"0 (no)"
>>> class("Cc1c(O)ccc(SC#N)c1C")
"0 (no)"
>>> class("CC[n+]1ccc(Nc2ccc(NC(=O)c3ccc(Nc4cc[n+](CC)c5ccc([N+](=O)[O-])cc45)cc3)cc2)cc1")
"1 (yes)"
>>> class("CCCCC(CCc1ccc([N+](=O)[O-])cc1)(C(C)=O)C(=O)OCC (centres undefined)")
"0 (no)"
>>> class("CCOc1cc(F)c([N+](=O)[O-])cc1[N+](=O)[O-]")
"1 (yes)"
